# target of assay: Trypsin (Homo sapiens) (UniProt P07477+P07478+P35030)
# protocol text: Inhibition of trypsin (unknown origin) assessed as residual enzyme activity at 20 uM using 4-nitrophenyl acetate as substrate and measured for 1 min by spectrophotometric analysis relative to control
# Format: protein assay
Below is a list of entries, each paired with its recorded Ratio value.

>  <smiles repr>
C[C@H](NC(=O)OCC1c2ccccc2-c2ccccc21)C(=O)NCC[N+](C)(C)C.[I-]

>  <Ratio>
1.04

$$$$
>  <smiles repr>
C[N+](C)(C)CCNC(=O)CNC(=O)OCC1c2ccccc2-c2ccccc21.[I-]

>  <Ratio>
0.96

$$$$
>  <smiles repr>
CC(C)(C)OC(=O)n1cc(C[C@H](NC(=O)OCC2c3ccccc3-c3ccccc32)C(=O)NCC[N+](C)(C)C)c2ccccc21.[I-]

>  <Ratio>
0.93

$$$$
>  <smiles repr>
C[N+](C)(C)CCNC(=O)[C@H](Cc1ccccc1)NC(=O)OCC1c2ccccc2-c2ccccc21.[I-]

>  <Ratio>
1.01

$$$$
>  <smiles repr>
CC(C)(C)OC(=O)NCCCC[C@H](NC(=O)OCC1c2ccccc2-c2ccccc21)C(=O)NCC[N+](C)(C)C.[I-]

>  <Ratio>
0.95

$$$$
>  <smiles repr>
CC(C)C[C@H](NC(=O)OCC1c2ccccc2-c2ccccc21)C(=O)NCC[N+](C)(C)C.[I-]

>  <Ratio>
0.99

$$$$

---

# target of assay: Trypsin (Homo sapiens) (UniProt P07477+P07478+P35030)
# protocol text: Inhibition of trypsin (unknown origin) assessed as residual enzyme activity at 50 uM using 4-nitrophenyl acetate as substrate and measured for 1 min by spectrophotometric analysis relative to control
# Assay type: protein assay
Outcome label depends on Ratio relative to 1: at/above gives true, below gives false.

>  <smiles repr>
CC(C)(C)OC(=O)NCCCC[C@H](NC(=O)OCC1c2ccccc2-c2ccccc21)C(=O)NCC[N+](C)(C)C.[I-]

>  <group label>
false

$$$$
>  <smiles repr>
C[N+](C)(C)CCNC(=O)[C@H](Cc1ccccc1)NC(=O)OCC1c2ccccc2-c2ccccc21.[I-]

>  <group label>
false

$$$$
>  <smiles repr>
C[N+](C)(C)CCNC(=O)CNC(=O)OCC1c2ccccc2-c2ccccc21.[I-]

>  <group label>
true

$$$$
>  <smiles repr>
CC(C)(C)OC(=O)n1cc(C[C@H](NC(=O)OCC2c3ccccc3-c3ccccc32)C(=O)NCC[N+](C)(C)C)c2ccccc21.[I-]

>  <group label>
false

$$$$

---

# target of assay: Acetylcholinesterase (Electrophorus electricus)
# protocol text: Inhibition of electric eel AChE assessed as residual enzyme activity at 50 uM using acetylthiocholine iodide as substrate and measured for 1 min by spectrophotometrc analysis relative to control
Listed compounds paired with reported Ratio
quantity name: Ratio

>  <smiles repr>
C[N+](C)(C)CCNC(=O)CNC(=O)OCC1c2ccccc2-c2ccccc21.[I-]

>  <endpoint value>
0.84

$$$$
>  <smiles repr>
C[N+](C)(C)CCNC(=O)[C@H](Cc1ccccc1)NC(=O)OCC1c2ccccc2-c2ccccc21.[I-]

>  <endpoint value>
0.89

$$$$
>  <smiles repr>
CC(C)C[C@H](NC(=O)OCC1c2ccccc2-c2ccccc21)C(=O)NCC[N+](C)(C)C.[I-]

>  <endpoint value>
0.92

$$$$
>  <smiles repr>
C[C@H](NC(=O)OCC1c2ccccc2-c2ccccc21)C(=O)NCC[N+](C)(C)C.[I-]

>  <endpoint value>
0.94

$$$$
>  <smiles repr>
CC(C)(C)OC(=O)NCCCC[C@H](NC(=O)OCC1c2ccccc2-c2ccccc21)C(=O)NCC[N+](C)(C)C.[I-]

>  <endpoint value>
0.81

$$$$
>  <smiles repr>
CC(C)(C)OC(=O)n1cc(C[C@H](NC(=O)OCC2c3ccccc3-c3ccccc32)C(=O)NCC[N+](C)(C)C)c2ccccc21.[I-]

>  <endpoint value>
0.68

$$$$
